measured_on: human STING (hSTING) (Homo sapiens)
Construct: host or cells: HEK-Blue ISG cells (HEK293-derived SEAP reporter line)
method: Inhibition test of intracellular human STING (hSTING) pathway using SEAP reporter cells (HEK-Blue ISG), stimulation with Compound 3
Type: cell-based
Set-up: scale not given here
condition_set: Compound 3 10 nM stimulation, 21 hours
Where a name gives a salt, the structure may show the parent alone.
measured_endpoint: hSTING inhibitory activity

Sample records with hSTING inhibitory activity:
{"molecule": "Cn1c(Nc2c[nH]c3ccc(Cl)nc23)nc2c(N3CCCCC3)cccc21 [Embodiment 157, formate]", "hSTING inhibitory activity": "* *"}
{"molecule": "Fc1cc(C(F)(F)F)cc2nc(Nc3c[nH]c4ccc(Cl)cc34)n(C3CC3)c12 [Embodiment 233]", "hSTING inhibitory activity": "* * *"}
{"molecule": "c1ccc(Oc2ccc3[nH]c(Nc4c[nH]c5c(-c6ccccc6)ccnc45)nc3c2)cc1 [Embodiment 54]", "hSTING inhibitory activity": "* *"}
{"molecule": "FC(F)(F)c1cccc2[nH]c(Nc3c[nH]c4ccc(Br)nc34)nc12 [Embodiment 89]", "hSTING inhibitory activity": "* * *"}
{"molecule": "CN(C)c1cccc(Oc2ccc3[nH]c(Nc4c[nH]c5ccc(Br)cc45)nc3c2)c1 [Example 26]", "hSTING inhibitory activity": "* *"}
{"molecule": "OCCn1c(Nc2c[nH]c3ccc(Cl)cc23)nc2cc(C(F)(F)F)ccc21 [Embodiment 223]", "hSTING inhibitory activity": "* * *"}

Query: What value of hSTING inhibitory activity has been reported for the following molecule? O=C(Nc1ccccc1)c1ccc2[nH]cc(Nc3nc4cc(Oc5ccccc5)ccc4[nH]3)c2c1 [Example 30]
Result: * *

###

Listed next: entries and their corresponding IC50.
measured_on: UniProtKB Q86WV6
method: Inhibition test of intracellular human STING (hSTING) pathway using SEAP reporter cells (HEK-Blue ISG), stimulation with Compound 3
condition_set: Compound 3 10 nM stimulation, 21 hours, read-out: hSTING inhibitory activity

{"compound": "O=C(O)c1ccc2[nH]cc(Nc3nc4cc(Oc5ccccc5)ccc4[nH]3)c2c1 [Example 27]", "IC50": "≥ 10 µM"}

Query: Name the recorded IC50 for CCCCn1c(Nc2c[nH]c3ccc(Br)nc23)nc2cc(Oc3ccccc3)ccc21 [Embodiment 90] .
Result: 1 to 10 µM

Query: Request the reported IC50 associated with COCCn1c(Nc2c[nH]c3ccc(Br)nc23)nc2cc(Oc3ccccc3)ccc21 [Embodiment 92]
Result: 1 to 10 µM

Query: Field request: IC50 | item: COCCn1c(Nc2c[nH]c3ccc(Cl)nc23)nc2cccc(C(F)(F)F)c21 [Embodiment 180]
Result: ≥ 10 µM

Query: Which value of IC50 has been reported for Cn1c(Nc2c[nH]c3ccc(Cl)nc23)nc2c(F)cc(F)cc21 [Embodiment 203] in the records?
Result: ≥ 10 µM

###

Parameter pIC50: see the listing below.
measured_on: human STING (hSTING) (Homo sapiens, UniProt Q86WV6)
Sequence (Q86WV6 whole entry H232R): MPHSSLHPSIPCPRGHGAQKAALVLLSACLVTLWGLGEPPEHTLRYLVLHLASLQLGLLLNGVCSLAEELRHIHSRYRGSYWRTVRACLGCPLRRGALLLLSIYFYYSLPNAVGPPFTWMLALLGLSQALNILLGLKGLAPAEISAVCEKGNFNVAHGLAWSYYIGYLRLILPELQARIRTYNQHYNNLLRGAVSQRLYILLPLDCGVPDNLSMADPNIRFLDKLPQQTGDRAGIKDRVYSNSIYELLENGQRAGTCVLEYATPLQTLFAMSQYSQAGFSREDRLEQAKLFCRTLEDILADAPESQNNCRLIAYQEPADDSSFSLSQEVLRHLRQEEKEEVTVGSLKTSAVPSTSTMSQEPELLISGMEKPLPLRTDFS
method: Inhibition test of intracellular human STING (hSTING) pathway using SEAP reporter cells (HEK-Blue ISG), stimulation with Compound 3
condition_set: Compound 3 10 nM stimulation, 21 hours, read-out: hSTING inhibitory activity
pIC50: −log10 of the molar value. Counter-ions that a name gives are not always drawn.

{"compound": "CN(C)Cc1ccccc1Oc1ccc2[nH]c(Nc3c[nH]c4ccc(Cl)nc34)nc2c1 [Embodiment 83, formate]", "measurement": "≤ 5.00"}
{"compound": "Clc1ccc2[nH]cc(Nc3nc4cc(OC5CCOCC5)ccc4[nH]3)c2n1 [Embodiment 142]", "measurement": "≤ 5.00"}
{"compound": "Clc1ccc2[nH]cc(Nc3nc4c(-c5cccnc5)cccc4[nH]3)c2n1 [Embodiment 147]", "measurement": "≤ 5.00"}
{"compound": "Oc1ccnc2c(Nc3nc4cc(Oc5ccccc5)ccc4[nH]3)c[nH]c12 [Embodiment 76]", "measurement": "≤ 5.00"}
{"compound": "CN(C)C(=O)c1cccc2c(Nc3nc4cc(Oc5ccccc5)ccc4[nH]3)c[nH]c12 [Embodiment 122, formate]", "measurement": "5.00 to 6.00"}

Query: Name the recorded pIC50 for Brc1cnc2c(Nc3nc4cc(Oc5ccccc5)ccc4[nH]3)c[nH]c2c1 [Embodiment 49] .
Result: 5.00 to 6.00

Query: Which pIC50 is listed for O=C(c1ccc2[nH]cc(Nc3nc4cc(Oc5ccccc5)ccc4[nH]3)c2c1)N1CCOCC1 [Example 28] ?
Result: ≤ 5.00

Query: Name the reported pIC50 value associated with the compound CN(C)c1ccnc2c(Nc3nc4cc(Oc5ccccc5)ccc4[nH]3)c[nH]c12 [Embodiment 70, formate]
Result: ≤ 5.00

Query: Reported pIC50 for Cn1c(Nc2c[nH]c3ccc(Cl)nc23)nc2cc(F)c(F)cc21 [Embodiment 138] : what is it?
Result: ≤ 5.00

Query: Entry c1ccc(Oc2ccc3[nH]c(Nc4c[nH]c5c(-c6ccncc6)ccnc45)nc3c2)cc1 [Embodiment 163] has what pIC50?
Result: ≤ 5.00

###

measured_on: human STING (hSTING) (Homo sapiens)
Construct: host or cells: HEK-Blue ISG cells (HEK293-derived SEAP reporter line)
method: Inhibition test of intracellular human STING (hSTING) pathway using SEAP reporter cells (HEK-Blue ISG), stimulation with Compound 3
Assay type: cell-based
Set-up: scale not given here
condition_set: Compound 3 10 nM stimulation, 21 hours
Structures can show the parent of a compound that is named as a salt.
measured_endpoint: hSTING inhibitory activity

Consider the reported hSTING inhibitory activity for these compounds:
{"compound": "Cn1c(Nc2c[nH]c3ccc(Cl)cc23)nc2cc(F)ccc21 [Embodiment 185, formate]", "measurement": "* *"}
{"compound": "Clc1ccc2[nH]c(Nc3c[nH]c4ccc(Br)nc34)nc2c1 [Embodiment 32]", "measurement": "* *"}
{"compound": "Brc1ccc2[nH]cc(Nc3nc4cc(OCc5ccccc5)ccc4[nH]3)c2n1 [Embodiment 69]", "measurement": "* *"}
{"compound": "CCCn1c(Nc2c[nH]c3ccc(Cl)cc23)nc2cc(C(F)(F)F)cc(F)c21 [Embodiment 238]", "measurement": "* * *"}
{"compound": "CCCn1c(Nc2c[nH]c3ccc(Cl)cc23)nc2cc(C(F)(F)F)ccc21 [Embodiment 212]", "measurement": "* * *"}
{"compound": "FC(F)(F)c1ccc2[nH]c(Nc3c[nH]c4ccc(Br)cc34)nc2c1 [Example 8]", "measurement": "* *"}

Query: Which hSTING inhibitory activity value is on record for Cc1ccc2[nH]cc(Nc3nc4cc(C(F)(F)F)cc(F)c4n3N(C)C)c2c1 [Embodiment 280] ?
Result: * * *

Query: What hSTING inhibitory activity value was documented for this compound, CNn1c(Nc2c[nH]c3cc(F)c(F)cc23)nc2cc(C(F)(F)F)cc(F)c21 [Embodiment 273] ?
Result: * * *

###

measured_on: human STING (hSTING) (Homo sapiens, UniProt Q86WV6)
Construct: host or cells: HEK-Blue ISG cells (HEK293-derived SEAP reporter line)
method: Inhibition test of intracellular human STING (hSTING) pathway using SEAP reporter cells (HEK-Blue ISG), stimulation with Compound 3
Assay type: cell-based
Design: scale not given here
condition_set: Compound 3 10 nM stimulation, 21 hours
Where a name gives a salt, the structure may show the parent alone.
measured_endpoint: hSTING inhibitory activity

Some entries whose results are on file:
{"compound": "CC(C)Oc1ccc2[nH]c(Nc3c[nH]c4ccc(Cl)nc34)nc2c1", "hSTING inhibitory activity": "* *"}
{"compound": "CN(C)n1c(Nc2c[nH]c3ccc(Cl)cc23)nc2ccc(C(F)(F)F)cc21", "hSTING inhibitory activity": "* *"}
{"compound": "Clc1ccc2[nH]cc(Nc3nc4c(N5CCCCC5)cccc4[nH]3)c2n1", "hSTING inhibitory activity": "* *"}
{"compound": "Cn1c(Nc2c[nH]c3ccc(Cl)cc23)nc2cc(C(F)(F)F)ccc21", "hSTING inhibitory activity": "* * *"}

Query: Can you look up the measured hSTING inhibitory activity of Cn1c(Nc2c[nH]c3ccc(Cl)cc23)nc2cc(C(F)(F)F)c(Cl)cc21 for me?
Result: * *

Query: Which value of hSTING inhibitory activity has been reported for COc1ccc2[nH]c(Nc3c[nH]c4ccc(Br)cc34)nc2c1 in the records?
Result: * *

Query: Using the record for C#CCn1c(Nc2c[nH]c3ccc(Cl)cc23)nc2cc(OC(F)(F)F)ccc21 , report its hSTING inhibitory activity.
Result: * * *

Query: Request the reported hSTING inhibitory activity associated with Cc1cccc2[nH]c(Nc3c[nH]c4ccc(Br)cc34)nc12
Result: * *

Query: # lookup: hSTING inhibitory activity of FC(F)(F)c1ccc2c(c1)nc(Nc1c[nH]c3ccc(Br)cc13)n2C1CC1
Result: * * *

Query: Fill blank: measured hSTING inhibitory activity of the compound C#Cc1ccc2[nH]c(Nc3c[nH]c4ccc(Cl)nc34)nc2c1 [Embodiment 133, formate] is ____.
Result: * *
